Cited source: paper PMC9607427

- System: BJ (noncancerous human fibroblasts from foreskin)
- EXPERIMENTAL_DETAILS: Cytotoxic MTS assay, BJ
- Assay type: cell-based
pIC50: −log10 of the molar value.

SMILES_REPR | pIC50
Cc1cc(C)cc(C(=O)OCCCS(=O)(=O)c2cc[n+]([O-])c3cc(Cl)ccc23)c1 | 4.49
O=C(OCCS(=O)(=O)c1cc[n+]([O-])c2cc(Cl)ccc12)c1ccc(C(F)(F)F)cc1 | 4.54
COc1ccc(C(=O)OCCCS(=O)(=O)c2cc[n+]([O-])c3cc(Cl)ccc23)cc1 | 4.91
Cc1ccc([N+](=O)[O-])c(C(=O)OCCS(=O)(=O)c2cc[n+]([O-])c3cc(Cl)ccc23)c1 | 4.59
COc1ccc(C(=O)OCCS(=O)(=O)c2cc[n+]([O-])c3cc(Cl)ccc23)cc1 | 4.62
COc1cccc(C(=O)OCCCS(=O)(=O)c2cc[n+]([O-])c3cc(Cl)ccc23)c1OC | 4.83
Cc1ccc([N+](=O)[O-])c(C(=O)OCCCS(=O)(=O)c2cc[n+]([O-])c3cc(Cl)ccc23)c1 | 4.65
COc1ccc(C(=O)OCCCS(=O)(=O)c2cc[n+]([O-])c3cc(Cl)ccc23)cc1[N+](=O)[O-] | 4.72
COc1ccc(C(=O)OCCS(=O)(=O)c2cc[n+]([O-])c3cc(Cl)ccc23)cc1[N+](=O)[O-] | 4.57
COc1ccccc1C(=O)OCCS(=O)(=O)c1cc[n+]([O-])c2cc(Cl)ccc12 | 4.61
COc1ccccc1C(=O)OCCCS(=O)(=O)c1cc[n+]([O-])c2cc(Cl)ccc12 | 4.60
COc1ccc(OC)c(C(=O)OCCS(=O)(=O)c2cc[n+]([O-])c3cc(Cl)ccc23)c1 | 4.65
COc1cccc(C(=O)OCCS(=O)(=O)c2cc[n+]([O-])c3cc(Cl)ccc23)c1OC | 5.04
COc1cc(OC)c(C(=O)OCCS(=O)(=O)c2cc[n+]([O-])c3cc(Cl)ccc23)cc1OC | 4.67
COc1cc(C(=O)OCCCS(=O)(=O)c2cc[n+]([O-])c3cc(Cl)ccc23)cc(OC)c1OC | 4.54
COc1cc(OC)c(C(=O)OCCCS(=O)(=O)c2cc[n+]([O-])c3cc(Cl)ccc23)cc1OC | 4.45
COc1ccc(OC)c(C(=O)OCCCS(=O)(=O)c2cc[n+]([O-])c3cc(Cl)ccc23)c1 | 4.58
O=C(OCCCS(=O)(=O)c1cc[n+]([O-])c2cc(Cl)ccc12)c1ccc(C(F)(F)F)cc1 | 4.63
